Biological target: T1, hIL-4Rα on cells (human, UniProt P24394 26-825)
T1 sequence: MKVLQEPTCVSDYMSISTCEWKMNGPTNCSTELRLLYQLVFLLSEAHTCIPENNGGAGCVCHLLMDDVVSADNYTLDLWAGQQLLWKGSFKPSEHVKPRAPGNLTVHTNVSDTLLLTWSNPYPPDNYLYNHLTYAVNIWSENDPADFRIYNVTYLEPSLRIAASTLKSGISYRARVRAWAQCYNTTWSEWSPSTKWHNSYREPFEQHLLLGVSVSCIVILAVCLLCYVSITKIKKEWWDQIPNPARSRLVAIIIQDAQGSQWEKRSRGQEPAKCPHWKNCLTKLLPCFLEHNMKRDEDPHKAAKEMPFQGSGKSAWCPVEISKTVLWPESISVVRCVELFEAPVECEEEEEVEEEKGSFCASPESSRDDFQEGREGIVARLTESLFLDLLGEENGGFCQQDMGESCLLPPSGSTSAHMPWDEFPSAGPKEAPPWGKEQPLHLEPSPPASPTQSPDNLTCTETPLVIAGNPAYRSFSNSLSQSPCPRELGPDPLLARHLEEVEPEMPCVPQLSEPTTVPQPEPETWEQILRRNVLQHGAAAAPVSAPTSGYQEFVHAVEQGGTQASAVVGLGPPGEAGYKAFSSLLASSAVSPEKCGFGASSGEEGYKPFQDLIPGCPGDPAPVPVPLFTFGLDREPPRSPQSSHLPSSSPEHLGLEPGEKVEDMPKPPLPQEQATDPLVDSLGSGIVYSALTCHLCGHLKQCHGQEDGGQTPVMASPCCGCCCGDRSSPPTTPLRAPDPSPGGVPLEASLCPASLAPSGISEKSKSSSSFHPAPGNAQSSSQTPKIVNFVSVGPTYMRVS
Assay: cell-based or functional assay
MEASUREMENT_KIND: Inhibition of IL-13 induced TF-1 Proliferation IC50

- BINDER: "Construct 31 (mAb443) with IgG1 YTE LALA heavy chain constant region (antibody, V domains shown) VH: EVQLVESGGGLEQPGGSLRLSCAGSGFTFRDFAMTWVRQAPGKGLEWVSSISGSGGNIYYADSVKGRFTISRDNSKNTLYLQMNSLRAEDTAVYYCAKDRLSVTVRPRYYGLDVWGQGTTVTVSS VL: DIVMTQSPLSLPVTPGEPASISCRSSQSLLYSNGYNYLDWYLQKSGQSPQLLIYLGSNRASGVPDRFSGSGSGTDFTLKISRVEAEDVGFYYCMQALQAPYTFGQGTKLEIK"
  VALUE_REPORTED: "0.175 nM"
- BINDER: "Construct 24 (mAb432) with IgG1 YTE LALA heavy chain constant region (antibody, V domains shown) VH: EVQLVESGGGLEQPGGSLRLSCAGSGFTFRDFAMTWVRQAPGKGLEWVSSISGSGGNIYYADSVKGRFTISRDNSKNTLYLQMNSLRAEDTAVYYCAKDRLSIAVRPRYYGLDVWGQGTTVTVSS VL: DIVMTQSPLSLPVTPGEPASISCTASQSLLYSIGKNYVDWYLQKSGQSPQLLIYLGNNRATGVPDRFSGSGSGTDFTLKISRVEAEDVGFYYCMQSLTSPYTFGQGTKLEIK"
  VALUE_REPORTED: "0.166 nM"
